// data source = ChEMBL document CHEMBL2331263

procedure-details: Intrinsic clearance in rat plasma
Entries and their CLint scaled values follow.

# chem-smiles, unit, CLint scaled
records = [
    ("O=c1n(Cc2nc(-c3nccs3)cn2CCCCO)c2cnccc2n1C1CC1", "mL/min/kg", 48),
    ("O=c1n(Cc2nc(-c3cccnc3)cn2CCCCO)c2cnccc2n1C1CC1", "mL/min/kg", 95),
]

----------
procedure-details: Apparent permeability in MDCK cells selected for low expression of efflux transporters
applied-conditions: dog
endpoint-name: Papp (×10⁻⁶ cm/s)

# chem-smiles, result
rows = [
    ("CC(C)n1nc(Cn2nc3ccccc3c2OCCCO)c2ccccc21", 16),
    ("CC(C)n1nc(Cn2c(=O)c3ccccc3n2CCCCO)c2ccccc21", 32),
    ("Cc1ccc(CCn2cc(-c3cccnc3)nc2Cn2c(=O)n(C3CC3)c3ccncc32)cn1", 2),
    ("O=c1n(Cc2nc(-c3ccccn3)cn2CCCCO)c2cnccc2n1C1CC1", 5),
    ("O=c1n(Cc2nc(-c3ncccn3)cn2CCCCO)c2cnccc2n1C1CC1", 1),
    ("O=c1n(Cc2nc(-c3nccs3)cn2CCCCO)c2cnccc2n1C1CC1", 4),
    ("Cc1cc(CCn2cc(-c3cccnc3)nc2Cn2c(=O)n(C3CC3)c3ccncc32)no1", 4),
    ("CC(C)n1nc(Cn2nc3c(c2CCCCO)CCCC3)c2ccccc21", 12),
    ("Cc1cc(CCn2cc(-c3cccnc3)nc2Cn2c(=O)n(C3CC3)c3ccncc32)on1", 3),
    ("O=c1n(Cc2nc(-c3cccnc3)cn2CCCCO)c2cnccc2n1C1CC1", 4),
    ("CC(C)n1nc(CCn2nc(CCCCO)c3ccccc32)c2cnccc21", 8),
    ("CC(C)n1nc(Cn2nc3ccccc3c2CCCO)c2ccccc21", 14),
]

----------
System: Respiratory syncytial virus
procedure-details: Antiviral activity against Respiratory syncytial virus A2 infected in A549 cells after 3 days by CelltitreGlo assay
Format: functional, organism-based
applied-conditions: human respiratory syncytial virus, A2, A549, 72 h
Mark MET for IC50 under 200 nM, NOT MET if at or over.

# chem-smiles, cat
measured = [
    ("COC(=O)N1CCC(n2c(=O)n(Cc3nc(C)c(C)n3CCCCO)c3cnccc32)CC1", "MET"),
    ("COC(=O)N1CCC(n2c(=O)n(Cc3nc4ccccc4n3CCCCO)c3ccccc32)CC1", "MET"),
    ("CC(C)n1nc(Cn2nc3ccccc3c2CCCCO)c2ccccc21", "NOT MET"),
    ("O=c1n(Cc2nc(-c3ncccn3)cn2CCCCO)c2cnccc2n1C1CC1", "NOT MET"),
    ("Cc1cc(CCn2cc(-c3cccnc3)nc2Cn2c(=O)n(C3CC3)c3ccncc32)on1", "MET"),
    ("O=c1n(Cc2nc(-c3nccs3)cn2CCCCO)c2cnccc2n1C1CC1", "MET"),
    ("O=c1n(Cc2nc(-c3ccccn3)cn2CCCCO)c2cnccc2n1C1CC1", "NOT MET"),
    ("CC(C)n1nc(Cn2nc3c(c2CCCCO)CCCC3)c2ccccc21", "NOT MET"),
    ("CC(C)n1nc(Cn2nc3ccccc3c2CCCO)c2ccccc21", "NOT MET"),
    ("CC(C)n1nc(Cn2nc3ccccc3c2C(=O)NCCCO)c2ccccc21", "NOT MET"),
    ("O=c1n(Cc2nc(Cl)c(Cl)n2CCCCO)c2cnccc2n1C1CC1", "MET"),
    ("Cc1ncc(CCn2cc(-c3cccnc3)nc2Cn2c(=O)n(C3CC3)c3ccncc32)o1", "NOT MET"),
    ("COC(=O)N1CCC(n2ccc(Cc3nc4ccccc4n3CCCCO)n2)CC1", "NOT MET"),
    ("CC(C)n1nc(Cn2nc3ccccc3c2OCCCCO)c2ccccc21", "MET"),
    ("O=c1n(Cc2nc(-c3cccnc3)cn2CCCCO)c2cnccc2n1C1CC1", "NOT MET"),
    ("O=c1n(Cc2nc3c(n2CCCCO)CCCC3)c2cnccc2n1C1CC1", "MET"),
    ("COC(=O)c1nc(Cn2c(=O)n(C3CC3)c3ccncc32)n(CCCCO)c1C", "NOT MET"),
    ("Cc1nnc(-c2cn(CCCCO)c(Cn3c(=O)n(C4CC4)c4ccncc43)n2)s1", "NOT MET"),
    ("O=c1n(Cc2nc3ccccc3n2CCCCO)c2cnccc2n1C1CC1", "MET"),
    ("O=c1n(Cc2nc(-c3ncco3)cn2CCCCO)c2cnccc2n1C1CC1", "MET"),
    ("CC(=O)N1CCC(Cn2nc3ccccc3c2CCCCO)CC1", "NOT MET"),
    ("Cc1ccc(CCn2cc(-c3cccnc3)nc2Cn2c(=O)n(C3CC3)c3ccncc32)cn1", "MET"),
]
